# Test system: Bifunctional dihydrofolate reductase-thymidylate synthase (Toxoplasma gondii)
# Sequence (Q07422 whole entry): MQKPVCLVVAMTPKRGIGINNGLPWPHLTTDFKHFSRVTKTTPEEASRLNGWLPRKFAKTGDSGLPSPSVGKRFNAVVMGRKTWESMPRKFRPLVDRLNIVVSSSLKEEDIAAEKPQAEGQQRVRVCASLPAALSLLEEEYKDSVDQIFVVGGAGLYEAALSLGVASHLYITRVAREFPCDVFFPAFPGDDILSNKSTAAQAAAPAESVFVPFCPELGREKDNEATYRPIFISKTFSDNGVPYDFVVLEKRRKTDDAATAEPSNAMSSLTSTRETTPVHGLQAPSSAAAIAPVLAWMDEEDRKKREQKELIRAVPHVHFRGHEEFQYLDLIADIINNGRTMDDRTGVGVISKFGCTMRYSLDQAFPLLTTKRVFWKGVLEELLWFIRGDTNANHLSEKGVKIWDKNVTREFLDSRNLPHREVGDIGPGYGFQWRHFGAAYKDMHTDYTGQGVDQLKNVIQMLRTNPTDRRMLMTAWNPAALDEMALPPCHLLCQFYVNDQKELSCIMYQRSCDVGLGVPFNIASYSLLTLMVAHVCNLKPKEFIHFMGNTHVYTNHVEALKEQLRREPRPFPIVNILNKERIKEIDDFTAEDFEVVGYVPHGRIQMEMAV
Measured attribute: log10 of IC50 (log10 of the value in µM)
Record value = log10 of IC50 given in µM.

Query :: Need log10 of IC50 of `Nc1nc(N)c2cc(C(=O)OCc3ccccc3)ccc2n1` , thanks.
Result :: -0.44

Query :: # lookup: log10 of IC50 of `Nc1nc(N)c2cc(CNc3ccccc3)ccc2n1`
Result :: -1.00

Query :: What value of log10 of IC50 has been reported for the following compound? `COc1ccc(C(=O)OCc2ccc3nc(N)nc(N)c3c2)c(OC)c1OC`
Result :: -0.85

Query :: Look at this compound and give its reported log10 of IC50. `Nc1nc(N)c2nc(COC(=O)c3ccccc3)cnc2n1`
Result :: 0.76

Query :: What log10 of IC50 value was documented for this compound, `Nc1nc(N)c2cc(COC(=O)c3ccccc3)cnc2n1` ?
Result :: 0.28

Query :: Consider the compound `Nc1nc(N)c2cc(COC(=O)c3ccc(C(=O)O)cc3)ccc2n1` and give its measured log10 of IC50.
Result :: 0.00

* * *

# Test system: Bifunctional dihydrofolate reductase-thymidylate synthase (Toxoplasma gondii)
Threshold 200 nM. IC50 below it: met. IC50 at it or above: not met.

Query :: For this molecule, is IC50 lower than 200 nM? `Nc1nc(N)c2cc(COC(=O)Cc3ccccc3)ccc2n1`
Result :: not met

Query :: A record lists `CN(Cc1ccc2nc(N)nc(N)c2c1)c1ccccc1` . Is its IC50 below 200 nM?
Result :: met

Query :: Find out if reported IC50 for `Cc1c(COC(=O)c2ccccc2)cnc2nc(N)nc(N)c12` is less than 200 nM
Result :: met

Query :: Is the reported IC50 for `Nc1nc(N)c2cc(CO)ccc2n1` strictly below 200 nM?
Result :: not met

Query :: Is IC50 of `COc1cc(OC)cc(C(=O)OCc2ccc3nc(N)nc(N)c3c2)c1` strictly below 200 nM?
Result :: met

Query :: Does `Nc1nc(N)c2cc(/C=C/C(=O)Oc3ccccc3)ccc2n1` have IC50 strictly under 200 nM?
Result :: met

Query :: Hello, is IC50 of the following molecule strictly smaller than 200 nM? `Nc1nc(N)c2cc(COC(=O)c3ccccc3)ccc2n1`
Result :: met

Query :: Is IC50 of `COc1ccc(C(=O)OCc2ccc3nc(N)nc(N)c3c2)cc1OC` strictly below 200 nM?
Result :: met

Query :: Is it true that IC50 reported for `COc1cc(C(=O)OCc2ccc3nc(N)nc(N)c3c2)cc(OC)c1OC` is less than 200 nM?
Result :: met

Query :: Strictly below 200 nM in IC50? `COc1ccc(OC)c(C(=O)OCc2ccc3nc(N)nc(N)c3c2)c1`
Result :: not met

Query :: Does the reported IC50 of `Cc1c(CO)cnc2nc(N)nc(N)c12` stay below 200 nM?
Result :: not met

* * *

# Test system: Dihydrofolate reductase (Rattus norvegicus)
# Sequence (Q920D2 whole entry): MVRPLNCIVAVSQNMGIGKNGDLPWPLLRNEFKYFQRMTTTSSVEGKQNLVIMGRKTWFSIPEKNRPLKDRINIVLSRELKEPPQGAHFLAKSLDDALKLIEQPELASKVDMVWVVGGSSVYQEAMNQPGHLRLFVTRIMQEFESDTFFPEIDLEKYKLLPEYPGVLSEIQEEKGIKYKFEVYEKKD
For each entry below, report its IC50 value.
Write the answer as a number in nM, unit excluded.

Query :: Given COc1cc(NCc2ccc3nc(N)nc(N)c3c2C)cc(OC)c1OC [TRIMETREXATE] , state its recorded IC50.
Result :: 8

Query :: Which IC50 value is on record for `COc1ccc(OC)c(C(=O)OCc2ccc3nc(N)nc(N)c3c2)c1` ?
Result :: 420

Query :: What value of IC50 has been reported for the following molecule? `Nc1nc(N)c2cc(C(=O)OCc3ccccc3)ccc2n1`
Result :: 420

Query :: Query (molecule): `COc1ccc(OC)c(Cc2cnc3nc(N)nc(N)c3c2C)c1` ; field requested: IC50
Result :: 4.4

Query :: I have this molecule here, `CN(Cc1ccc2nc(N)nc(N)c2c1)c1ccccc1` , and I need its recorded IC50.
Result :: 69

Query :: Tell me the measured IC50 of `Nc1nc(N)c2cc(CNc3ccccc3)ccc2n1` , please.
Result :: 440

Query :: Give its IC50 value. Item: `Cc1c(COC(=O)c2ccccc2)cnc2nc(N)nc(N)c12`
Result :: 230

Query :: Consider the molecule shown here: `Nc1nc(N)c2cc(/C=C/C(=O)Oc3ccccc3)ccc2n1` What is its recorded IC50?
Result :: 1290

Query :: Consider the molecule shown here: `Nc1nc(N)c2cc(COC(=O)Cc3ccccc3)ccc2n1` What is its recorded IC50?
Result :: 2300
